Reference for the values: paper PMC12495306

Recorded pKi for the following compounds
Target: ARα2C (Homo sapiens)
Sequence (P18825 whole entry): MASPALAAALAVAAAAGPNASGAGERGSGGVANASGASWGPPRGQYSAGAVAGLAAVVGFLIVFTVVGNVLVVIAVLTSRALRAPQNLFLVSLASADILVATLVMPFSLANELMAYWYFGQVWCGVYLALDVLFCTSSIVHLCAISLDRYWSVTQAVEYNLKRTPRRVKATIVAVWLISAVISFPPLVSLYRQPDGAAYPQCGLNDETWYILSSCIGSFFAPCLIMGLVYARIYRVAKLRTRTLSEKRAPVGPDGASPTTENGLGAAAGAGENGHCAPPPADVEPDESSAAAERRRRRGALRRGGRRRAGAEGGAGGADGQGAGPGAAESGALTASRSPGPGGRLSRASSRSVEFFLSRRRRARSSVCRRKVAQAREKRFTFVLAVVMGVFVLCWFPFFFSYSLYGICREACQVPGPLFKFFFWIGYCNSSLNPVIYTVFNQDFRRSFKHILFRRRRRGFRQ
On this scale, pKi is minus log10 of a concentration expressed in M (mol/L).

[[record]]
compound = "CC1N=C(c2ccccc2F)c2cc(Nc3ccccc3F)ccc2NC1=O (centres unmarked) [Compound 14]"
targetorsystem = "ARα2C (Homo sapiens)"
endpointvalue = 5.67

[[record]]
compound = "COc1ccccc1Nc1ccc2c(c1)C(c1ccccc1F)=NC(C)C(=O)N2 (centres unmarked) [Compound 17]"
targetorsystem = "ARα2C (Homo sapiens)"
endpointvalue = 6.13

[[record]]
compound = "CSc1ccc(Nc2ccc3c(c2)C(c2ccccc2F)=NC(C)C(=O)N3)cc1 (centres unmarked) [Compound 7]"
targetorsystem = "ARα2C (Homo sapiens)"
endpointvalue = 5.62

[[record]]
compound = "Cc1ccc(Nc2ccc3c(c2)C(c2ccccc2F)=NC(C)C(=O)N3)cc1 (centres unmarked) [Compound 3]"
targetorsystem = "ARα2C (Homo sapiens)"
endpointvalue = 5.67


Next, consider the following compound.
Find the measured pKi: item COc1ccc(Nc2ccc3c(c2)C(c2ccccc2F)=NC(C)C(=O)N3)cc1 (centres unmarked) [Compound 4] , target or system ARα2C (Homo sapiens).
5.68

---

# reported pKi; entries follow
Target: ARα2A (Homo sapiens)
Sequence (P08913 whole entry): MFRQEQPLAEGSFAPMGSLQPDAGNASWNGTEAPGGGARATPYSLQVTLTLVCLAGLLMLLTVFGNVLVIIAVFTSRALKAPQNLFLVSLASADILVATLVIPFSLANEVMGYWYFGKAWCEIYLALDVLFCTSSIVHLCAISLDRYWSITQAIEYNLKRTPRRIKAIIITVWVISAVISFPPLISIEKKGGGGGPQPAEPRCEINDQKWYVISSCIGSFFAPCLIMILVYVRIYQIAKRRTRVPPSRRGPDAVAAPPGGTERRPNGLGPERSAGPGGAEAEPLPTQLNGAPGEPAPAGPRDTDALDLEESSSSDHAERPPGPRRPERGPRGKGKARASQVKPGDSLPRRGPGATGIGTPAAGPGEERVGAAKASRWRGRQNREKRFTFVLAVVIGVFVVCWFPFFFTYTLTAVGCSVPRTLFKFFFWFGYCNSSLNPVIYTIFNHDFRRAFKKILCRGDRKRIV
Test: ARα2A radioligand
Assay type: binding
Details: ARα2A binding Ki, competition with 3H-Rauwolscinein; concentration response
# log scale: pKi equals minus log10 of the concentration in mol/L

[[record]]
compound = "CC1N=C(c2ccccc2F)c2cc(Nc3ccc([N+](=O)[O-])cc3)ccc2NC1=O (centres unmarked)"
endpointvalue = 5.58


Any idea what its pKi is? The compound is Cc1ccc(Nc2ccc3c(c2)C(c2ccccc2F)=NC(C)C(=O)N3)cc1 (centres unmarked)
5.64

What value of pKi has been reported for the following compound? CC1N=C(c2ccccc2F)c2cc(Nc3ccc(C(F)(F)F)cc3)ccc2NC1=O (centres unmarked)
5.59

---

Target: ARα2B (Homo sapiens)
Sequence (P18089 whole entry): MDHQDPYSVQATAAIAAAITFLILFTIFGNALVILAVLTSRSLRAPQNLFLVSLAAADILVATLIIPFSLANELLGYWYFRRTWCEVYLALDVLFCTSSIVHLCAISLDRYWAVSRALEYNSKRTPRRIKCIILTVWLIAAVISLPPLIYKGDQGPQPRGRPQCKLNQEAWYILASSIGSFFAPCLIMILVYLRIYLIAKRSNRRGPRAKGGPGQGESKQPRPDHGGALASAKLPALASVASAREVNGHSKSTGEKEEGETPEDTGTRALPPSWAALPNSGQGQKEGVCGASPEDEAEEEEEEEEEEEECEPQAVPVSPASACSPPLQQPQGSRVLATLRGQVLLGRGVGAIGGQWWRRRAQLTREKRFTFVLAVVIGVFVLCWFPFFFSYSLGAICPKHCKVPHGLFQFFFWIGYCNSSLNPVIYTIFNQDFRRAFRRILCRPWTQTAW
Assay: ARα2B radioligand
Assay type: binding
Conditions: read-out: ARα2B binding (% inhibition at 10 μM)
In this section we review reported inhibition at 10 µM values for a set of compounds.

Solved entries (count: 3):
[[record]]
compound = "COc1ccccc1Nc1ccc2c(c1)C(c1ccccc1F)=NC(C)C(=O)N2 (centres unmarked)"
readoutkind = "inhibition at 10 µM"
endpointvalue = "91%"

[[record]]
compound = "CC1N=C(c2ccccc2F)c2cc(Nc3ccc(O)cc3)ccc2NC1=O (centres unmarked)"
readoutkind = "inhibition at 10 µM"
endpointvalue = "52%"

[[record]]
compound = "CC1N=C(c2ccccc2F)c2cc(NC(C)(C)C)ccc2NC1=O (centres unmarked)"
readoutkind = "inhibition at 10 µM"
endpointvalue = "40%"


Okay, next one:
Given the compound CC1N=C(c2ccccc2F)c2cc(Nc3cccc(C#N)c3)ccc2NC1=O (centres unmarked) , what is its reported inhibition at 10 µM?
57%

---

Consider the following compounds and their measured Ki readings.
Molecular target: ARα2B (Homo sapiens)
Test: ARα2B radioligand
Type: binding
Just the number please, in µM, no unit attached.

[[record]]
compound = "CC1N=C(c2ccccc2F)c2cc(Nc3cccc(C#N)c3)ccc2NC1=O (centres unmarked) [Compound 19]"
endpointvalue = 3.25


Recorded Ki of Cc1cccc(Nc2ccc3c(c2)C(c2ccccc2F)=NC(C)C(=O)N3)c1 (centres unmarked) [Compound 18] , please.
1.67

# query: Ki of entry CC1N=C(c2ccccc2F)c2cc(Nc3ccc(Cl)cc3)ccc2NC1=O (centres unmarked) [Compound 5]
1.41

Fill in: Ki of CC1N=C(c2ccccc2F)c2cc(Nc3ccccc3)ccc2NC1=O (centres unmarked) [Compound 2] is ___
0.511

Quick one: Ki for COc1ccccc1Nc1ccc2c(c1)C(c1ccccc1F)=NC(C)C(=O)N2 (centres unmarked) [Compound 17] ?
0.607

What value of Ki has been reported for the following compound? CC1N=C(c2ccccc2F)c2cc(Nc3ccccc3F)ccc2NC1=O (centres unmarked) [Compound 14]
1.28

# lookup: Ki of Cc1ccc(Nc2ccc3c(c2)C(c2ccccc2F)=NC(C)C(=O)N3)cc1 (centres unmarked) [Compound 3]
4.64

Recorded Ki for CC1N=C(c2ccccc2F)c2cc(Nc3ccc(O)cc3)ccc2NC1=O (centres unmarked) [Compound 10] , please?
4.18
